System: Lolium perenne (LOLPE)
Assay: Post-emergence herbicidal glasshouse test, Lolium perenne
Format: in vivo
Details: 312 h, rate 250 g/ha, evaluated after 13 days, scale 100 = total damage to plant, 0 = no damage
Description: Seeds of a variety of test species were sown in standard soil in pots. […] After 13 days for pre and post-emergence, the test was evaluated ([…] to plant; 0=no damage to plant). […]
// pest or weed control at 250 g/ha lookup, one value per entry
Value Type: pest or weed control at 250 g/ha

CCc1cc(-c2ccc(Cl)c(Cl)c2)ccc1C1=C(O)C(C)(C)OC(C)(C)C1=O [Compound A-38] ... 70%
CCc1cc(-c2ccc(F)cc2)ccc1C1=C(O)C(C)(COC)OC(C)(C)C1=O (centres unmarked) [Compound A-101] ... 100%
CCc1cc(-c2ccc(F)c(F)c2F)ccc1C1=C(O)C(C)(COC)OC(C)(C)C1=O (centres unmarked) [Compound A-117] ... 80%
CCc1cc(-c2cc(Cl)cc(Cl)c2)ccc1C1=C(O)C(C)(C)OC(C)(C)C1=O [Compound A-99] ... 90%
CCc1cc(-c2ccc(F)c(F)c2)ccc1C1=C(O)C(C)(COC)OC(C)(C)C1=O (centres unmarked) [Compound A-113] ... 100%
CCc1cc(-c2cc(F)c(F)cc2F)ccc1C1=C(O)C(C)(C)OC(C)(C)C1=O [Compound A-86] ... 90%
CCc1cc(-c2ccc(F)c(F)c2)ccc1C1=C(O)C(C)(C)[S+]([O-])C(C)(C)C1=O (centres unmarked) [Compound B-11] ... 60%
CCc1cc(-c2ccccc2)ccc1C1=C(O)C(C)(C)OC(C)(C)C1=O [Compound A-96] ... 80%

----------
System: Avena fatua (AVEFA)
Assay: Pre-emergence herbicidal glasshouse test, Avena fatua
Format: in vivo
Conditions: Avena fatua, 312 h, rate 250 g/ha, evaluated after 13 days, scale 100 = total damage to plant, 0 = no damage
// pest or weed control at 250 g/ha lookup, one value per entry
Value Type: pest or weed control at 250 g/ha

CCc1cc(-c2ccc(F)cc2)ccc1C1=C(O)C(C)(C)OC(C)(C)C1=O ... 60%
CCc1cc(-c2ccc(C)cc2)ccc1C1=C(O)[C@@]2(C)CC[C@H](O2)C1=O (racemic) ... 0%
CCc1cc(-c2ccc(Cl)cc2F)ccc1C1=C(O)[C@@]2(C)CC[C@H](O2)C1=O (racemic) ... 50%
CCc1cc(-c2ccc(F)cc2F)ccc1C1=C(O)C(C)(C)OC(C)(C)C1=O ... 20%
CCc1cc(-c2ccc(F)c(F)c2)ccc1C1=C(O)C(C)(C)S(=O)(=O)C(C)(C)C1=O ... 10%
CCc1cc(-c2cc(F)c(F)c(F)c2)ccc1C1=C(O)C(C)(CC)OC(C)(CC)C1=O (stereo not shown) ... 10%
CCc1cc(-c2ccc(F)c(OC)c2)ccc1C1=C(O)C(C)(CC)OC(C)(C)C1=O (stereo not shown) ... 0%
CCc1cc(-c2ccc(F)c(F)c2)ccc1C1=C(O)C(C)(COC)OC(C)(C)C1=O (stereo not shown) ... 90%
CCc1cc(-c2c(F)cc(Cl)cc2F)ccc1C1=C(O)[C@@]2(C)CC[C@H](O2)C1=O (racemic) ... 0%
Cc1cc(-c2cc(Cl)cc(Cl)c2)cc(C)c1C1=C(O)[C@@]2(C)CC[C@H](O2)C1=O ... 0%
CCc1cc(-c2ccc(Cl)c(F)c2)ccc1C1=C(O)C(C)(C)OC(C)(C)C1=O ... 20%
CCc1cc(-c2ccc(Cl)cc2)ccc1C1=C(OC(C)=O)[C@@H]2CC[C@@](C)(O2)C1=O (racemic) ... 40%
CCc1cc(-c2cc(F)c(F)c(F)c2)ccc1C1=C(O)C2(CCCC2)OC(C)(C)C1=O ... 0%
Cc1cc(-c2ccccc2)cc(C)c1C1=C(O)C(C)(C)OC(C)(C)C1=O ... 40%
CCc1cc(-c2ccc(Cl)cc2Cl)ccc1C1=C(O)[C@@]2(C)CC[C@H](O2)C1=O ... 0%
Cc1cc(-c2ccc(F)cc2)cc(C)c1C1=C(O)[C@@]2(C)CC[C@H](O2)C1=O ... 70%
